system: Cem/0; test: Cytostatic assay, CEM/0 cells; assay type: cell-based, human; settings: Homo sapiens, CCRF-CEM, Table 1; read-out: CC50 Cem/0
Property: CC50; scope: individual compounds
Lab book: enter the figure in nM, no units written.

>>> result("C[C@H](NP(=O)(OC[C@H]1O[C@@H](n2cc(F)c(=O)[nH]c2=O)CC1O)Oc1cccc2ccccc12)C(=O)OCC(C)(C)C (some centres unmarked)")
490
>>> result("C[C@H](NP(=O)(OC[C@H]1O[C@@H](n2cc(F)c(=O)[nH]c2=O)CC1O)Oc1cccc2ccccc12)C(=O)OC1CCC1 (some centres unmarked)")
73
>>> result("CC(C)OC(=O)[C@H](C)NP(=O)(O)OCC1OC(n2cc(F)c(=O)[nH]c2=O)CC1O (some centres unmarked) [CPF 438, reference compound]")
2100
>>> result("O=c1[nH]c(=O)n([C@H]2C[C@H](O)[C@@H](CO)O2)cc1F [5-FdUrd, 5-fluoro-2′-deoxyuridine, reference compound]")
28

Record O=C(OCc1ccccc1)[C@H](Cc1ccccc1)NP(=O)(OC[C@H]1O[C@@H](n2cc(F)c(=O)[nH]c2=O)CC1O)Oc1cccc2ccccc12 (some centres unmarked) , field CC50: 100

For C[C@H](NP(=O)(OC[C@H]1O[C@@H](n2cc(F)c(=O)[nH]c2=O)CC1O)Oc1cccc2ccccc12)C(=O)OC1CCOCC1 (some centres unmarked) the compound record lists CC50 as 110

CCCCCOC(=O)[C@H](C)NP(=O)(OC[C@H]1O[C@@H](n2cc(F)c(=O)[nH]c2=O)CC1O)Oc1cccc2ccccc12 (some centres unmarked) yielded CC50 of 15

The compound identified as CCCCOC(=O)[C@H](C)NP(=O)(OC[C@H]1O[C@@H](n2cc(F)c(=O)[nH]c2=O)CC1O)Oc1cccc2ccccc12 (some centres unmarked) registered its CC50 at 64

Documented CC50 of CCOC(=O)[C@H](C)NP(=O)(OC[C@H]1O[C@@H](n2cc(F)c(=O)[nH]c2=O)CC1O)Oc1ccccc1 (some centres unmarked) : 920

Lookup result for C[C@H](NP(=O)(OC[C@H]1O[C@@H](n2cc(F)c(=O)[nH]c2=O)CC1O)Oc1cccc2ccccc12)C(=O)OCC1CC1 (some centres unmarked) ; measured CC50: 59

For COC(=O)[C@H](C)NP(=O)(OC[C@H]1O[C@@H](n2cc(F)c(=O)[nH]c2=O)CC1O)Oc1ccccc1 (some centres unmarked) [CPF 382, reference compound] the compound record lists CC50 as 346

Record C[C@H](NP(=O)(OC[C@H]1O[C@@H](n2cc(F)c(=O)[nH]c2=O)CC1O)Oc1cccc2ccccc12)C(=O)OCCC(C)(C)C (some centres unmarked) . Reported CC50: 53

Input C[C@H](NP(=O)(OC[C@H]1O[C@@H](n2cc(F)c(=O)[nH]c2=O)CC1O)Oc1cccc2ccccc12)C(=O)OCc1ccccc1 (some centres unmarked) . Output CC50: 89

CC50 reading for C[C@H](NP(=O)(OC[C@H]1O[C@@H](n2cc(F)c(=O)[nH]c2=O)CC1O)Oc1cccc2ccccc12)C(=O)OC1CCCCC1 (some centres unmarked) : 57

// sample CC(C)(NP(=O)(OC[C@H]1O[C@@H](n2cc(F)c(=O)[nH]c2=O)CC1O)Oc1ccccc1)C(=O)OCc1ccccc1 (some centres unmarked) , its CC50 was 230

Just so you know, measured CC50 for CCOC(=O)[C@H](C)NP(=O)(OC[C@H]1O[C@@H](n2cc(F)c(=O)[nH]c2=O)CC1O)Oc1cccc2ccccc12 (some centres unmarked) came out at 250

Memo: CC(C)OC(=O)[C@H](C)NP(=O)(OC[C@H]1O[C@@H](n2cc(F)c(=O)[nH]c2=O)CC1O)Oc1ccccc1 (some centres unmarked) , reported CC50: 1000

For record C[C@H](NP(=O)(OC[C@H]1O[C@@H](n2cc(F)c(=O)[nH]c2=O)CC1O)Oc1cccc2ccccc12)C(=O)OC1CCCC1 (some centres unmarked) the listed CC50 is 35

CC50 reading for O=c1[nH]cc(F)c(=O)[nH]1 [5-FU, 5-Fluorouracil, reference compound] : 18000

Query CCOC(=O)C(C)(C)NP(=O)(OC[C@H]1O[C@@H](n2cc(F)c(=O)[nH]c2=O)CC1O)Oc1cccc2ccccc12 (some centres unmarked) yields CC50 of 360

// CSCC[C@H](NP(=O)(OC[C@H]1O[C@@H](n2cc(F)c(=O)[nH]c2=O)CC1O)Oc1ccccc1)C(=O)OCc1ccccc1 (some centres unmarked) : CC50 value = 280

CCOC(=O)C(C)(C)NP(=O)(OC[C@H]1O[C@@H](n2cc(F)c(=O)[nH]c2=O)CC1O)Oc1ccccc1 (some centres unmarked) has a reported CC50 of 650

Sourced from patent US10993957B2
